Item-by-item account of Inhibition at 100 μM
- Test system: Botrytis cinerea (B05.10)
- measurement description: Resazurin antifungal assay of 180 alpha-factor peptide variants towards Botrytis (Example 2)
- Assay type: cell-based
- applied conditions: % inhibition of fungal growth, Botrytis conidia, peptide 100 μM, resazurin
Peptide text beside a SMILES is read from it.
quantity kind: Inhibition at 100 μM (%)

compound="CC[C@H](C)[C@H](NC(=O)[C@H](CCC(N)=O)NC(=O)CNC(=O)[C@H](CCSC)NC(=O)[C@H](CO)NC(=O)[C@@H](N)Cc1c[nH]c2ccccc12)C(=O)N[C@@H](CCCCN)C(=O)N1CCC[C@H]1C(=O)NCC(=O)N[C@@H](CO)C(=O)N1CCC[C@H]1C(=O)N[C@@H](CCSC)C(=O)N[C@@H](Cc1ccc(O)cc1)C(=O)O [compound 120] (H-WSMGQIKPGSPMY-OH; N-terminus and C-terminus assumed)" quantity_kind="Inhibition at 100 μM" uom=% qualifier_operator=< measured_number=90
compound="CC[C@H](C)[C@H](NC(=O)[C@H](CO)NC(=O)[C@H](CC(C)C)NC(=O)[C@H](Cc1c[nH]c2ccccc12)NC(=O)[C@H](Cc1c[nH]cn1)NC(=O)[C@@H](N)Cc1c[nH]c2ccccc12)C(=O)N[C@@H](CCCCN)C(=O)N1CCC[C@H]1C(=O)NCC(=O)N[C@@H](CCC(N)=O)C(=O)NCC(=O)N[C@@H](CCSC)C(=O)N[C@@H](Cc1ccc(O)cc1)C(=O)O [compound 110] (H-WHWLSIKPGQGMY-OH; N-terminus and C-terminus assumed)" quantity_kind="Inhibition at 100 μM" uom=% qualifier_operator== measured_number=97.94
compound="CC[C@H](C)[C@H](NC(=O)[C@H](CCC(N)=O)NC(=O)[C@@H](NC(=O)[C@H](Cc1c[nH]c2ccccc12)NC(=O)[C@H](CCCCN)NC(=O)[C@@H](N)Cc1c[nH]c2ccccc12)C(C)C)C(=O)N[C@@H](CCCCN)C(=O)N[C@@H](CCCCN)C(=O)NCC(=O)N[C@@H](C)C(=O)N1CCC[C@H]1C(=O)N[C@@H](CCSC)C(=O)N[C@@H](Cc1ccc(O)cc1)C(=O)O [compound 58] (H-WKWVQIKKGAPMY-OH; N-terminus and C-terminus assumed)" quantity_kind="Inhibition at 100 μM" uom=% qualifier_operator== measured_number=100
compound="CSCC[C@H](NC(=O)[C@@H]1CCCN1C(=O)[C@H](CCC(N)=O)NC(=O)CNC(=O)[C@@H](NC(=O)[C@H](CCCCN)NC(=O)[C@H](CC(C)C)NC(=O)[C@H](CCCNC(=N)N)NC(=O)[C@@H](NC(=O)[C@H](Cc1c[nH]c2ccccc12)NC(=O)[C@H](CCCCN)NC(=O)[C@@H](N)Cc1c[nH]c2ccccc12)C(C)C)[C@@H](C)O)C(=O)N[C@@H](Cc1ccc(O)cc1)C(=O)O [compound 53] (H-WKWVRLKTGQPMY-OH; N-terminus and C-terminus assumed)" quantity_kind="Inhibition at 100 μM" uom=% qualifier_operator== measured_number=100
compound="CSCC[C@H](NC(=O)[C@@H]1CCCN1C(=O)[C@H](CCC(N)=O)NC(=O)CNC(=O)[C@@H]1CCCN1C(=O)[C@H](Cc1c[nH]c2ccccc12)NC(=O)[C@H](CC(C)C)NC(=O)[C@H](CCC(=O)O)NC(=O)[C@H](CC(C)C)NC(=O)[C@H](CC(=O)O)NC(=O)[C@H](Cc1c[nH]cn1)NC(=O)[C@@H](N)CCCCN)C(=O)N[C@@H](Cc1ccc(O)cc1)C(=O)O [compound 47] (H-KHDLELWPGQPMY-OH; N-terminus and C-terminus assumed)" quantity_kind="Inhibition at 100 μM" uom=% qualifier_operator=< measured_number=90
compound="CSCC[C@H](NC(=O)[C@@H]1CCCN1C(=O)[C@H](CCC(N)=O)NC(=O)CNC(=O)[C@@H]1CCCN1C(=O)[C@H](CCCCN)NC(=O)[C@H](Cc1ccccc1)NC(=O)[C@H](CC(N)=O)NC(=O)[C@H](CC(C)C)NC(=O)[C@H](Cc1ccccc1)NC(=O)[C@H](Cc1c[nH]cn1)NC(=O)[C@@H](N)CCCCN)C(=O)N[C@@H](Cc1ccc(O)cc1)C(=O)O [compound 78] (H-KHFLNFKPGQPMY-OH; N-terminus and C-terminus assumed)" quantity_kind="Inhibition at 100 μM" uom=% qualifier_operator== measured_number=100
compound="CSCC[C@H](NC(=O)[C@@H]1CCCN1C(=O)[C@H](CCC(N)=O)NC(=O)CNC(=O)[C@@H]1CCCN1C(=O)[C@H](CCCCN)NC(=O)[C@H](CC(C)C)NC(=O)[C@H](CCCCN)NC(=O)[C@H](CC(C)C)NC(=O)[C@H](CC(=O)O)NC(=O)CNC(=O)[C@@H](N)Cc1c[nH]c2ccccc12)C(=O)N[C@@H](Cc1ccc(O)cc1)C(=O)O [compound 134] (H-WGDLKLKPGQPMY-OH; N-terminus and C-terminus assumed)" quantity_kind="Inhibition at 100 μM" uom=% qualifier_operator=< measured_number=90
compound="CSCC[C@H](NC(=O)[C@@H]1CCCN1C(=O)[C@H](CCC(N)=O)NC(=O)CNC(=O)[C@@H]1CCCN1C(=O)[C@H](CCCCN)NC(=O)[C@H](CC(C)C)NC(=O)[C@@H](NC(=O)[C@H](CC(C)C)NC(=O)[C@H](Cc1ccccc1)NC(=O)[C@H](Cc1c[nH]cn1)NC(=O)[C@@H](N)CCCCN)[C@@H](C)O)C(=O)N[C@@H](Cc1ccc(O)cc1)C(=O)O [compound 96] (H-KHFLTLKPGQPMY-OH; N-terminus and C-terminus assumed)" quantity_kind="Inhibition at 100 μM" uom=% qualifier_operator== measured_number=99.87
compound="CSCC[C@H](NC(=O)[C@@H]1CCCN1C(=O)[C@H](CO)NC(=O)CNC(=O)[C@@H]1CCCN1C(=O)CNC(=O)[C@H](Cc1ccccc1)NC(=O)[C@H](CCC(N)=O)NC(=O)[C@@H](NC(=O)[C@H](Cc1c[nH]c2ccccc12)NC(=O)[C@H](Cc1c[nH]cn1)NC(=O)[C@@H](N)Cc1c[nH]c2ccccc12)C(C)C)C(=O)N[C@@H](Cc1ccc(O)cc1)C(=O)O [compound 111] (H-WHWVQFGPGSPMY-OH; N-terminus and C-terminus assumed)" quantity_kind="Inhibition at 100 μM" uom=% qualifier_operator== measured_number=96.65
